So I've got a bunch of proteins here, and I need their kcat/Km (mM^-1 · min^-1) values.
# experimentalTarget: T1, Boc-Glu(OBzl)-Ala-Arg-MCA
# T1 chain: EAR
// no unit, no text: just the number

Ask: What measured kcat/Km (mM^-1 · min^-1) goes with Bovine EP serine protease (New England Biolabs) (protein) IVGGSDSREGAWPWVVALYFDDQQVCGASLVSRDWLVSAAHCVYGRNMEPSKWKAVLGLHMASNLTSPQIETRLIDQIVINPHYNKRRKNNDIAMMHLEMKVNYTDYIQPICLPEENQVFPPGRICSIAGWGALIYQGSTADVLQEADVPLLSNEKCQQQMPEYNITENMVCAGYEAGGVDSCQGDSGGPLMCQENNRWLLAGVTSFGYQCALPNRPGVYARVPRFTEWIQSFLH ?
Reply: 1400

Ask: Entry under review: porcine EP serine protease domain (Ile800 to His1034) (protein) IVGGNDSREGAWPWVVALYYNGQLLCGASLVSRDWLVSAAHCVYGRNLEPSKWKAILGLHMTSNLTSPQIVTRLIDEIVINPHYNRRRKDSDIAMMHLEFKVNYTDYIQPICLPEENQVFPPGRICSIAGWGKVIYQGSPADILQEADVPLLSNEKCQQQMPEYNITENMMCAGYEEGGIDSCQGDSGGPLMCLENNRWLLAGVTSFGYQCALPNRPGVYARVPKFTEWIQSFLH . Reported kcat/Km (mM^-1 · min^-1)?
Reply: 370

Ask: Look up kcat/Km (mM^-1 · min^-1): Bovine EP serine protease (Novagen) (protein) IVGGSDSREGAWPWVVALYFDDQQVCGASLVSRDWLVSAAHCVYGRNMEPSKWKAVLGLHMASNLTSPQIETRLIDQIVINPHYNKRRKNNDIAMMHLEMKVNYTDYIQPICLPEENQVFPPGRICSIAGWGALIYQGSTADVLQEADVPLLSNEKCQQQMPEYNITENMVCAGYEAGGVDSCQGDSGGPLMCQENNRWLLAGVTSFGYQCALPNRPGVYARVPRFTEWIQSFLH
Reply: 1500
